- tgt: thrombin (Bos taurus, UniProt P00735)
- Construct: purchased Lubelska Wytwórnia Szczepionek (Lublin, Poland)
- test-details: Amidolytic activity of thrombin (chromogenic substrate H-D-Phe-Pip-Arg-pNA)
- Type: biochemical
- measurement-parameters: amidolytic activity; Tris pH 8.4, 37 °C; IC50 by extrapolation using a linear plot; error 5%; read-out: IC50 Thrombin
# Lookup of reported IC50 keyed by entry
Please reply with the bare figure in µM and do not write the unit itself.

These recorded examples may help you get a feel for the data.
C[C@@H](O)[C@H](NC(=O)[C@H](CCCNC(=N)N)NC(=O)CCCCC1CCSS1)C(=O)N[C@H](C(=O)N[C@@H](CCCNC(=N)N)C(=O)N[C@@H](CO)C(=O)O)[C@@H](C)O (mixture of isomers) [Peptide 19, Lip-Arg-Thr-Thr-Arg-Ser-OH] ... 1840
C[C@@H](O)[C@H](NC(=O)[C@H](CCCCN)NC(=O)CCCCC1CCSS1)C(=O)N[C@H](C(=O)N[C@@H](CCCCN)C(=O)N[C@@H](CO)C(=O)O)[C@@H](C)O (mixture of isomers) [Peptide 3, Lip-Lys-Thr-Thr-Lys-Ser-OH] ... 12800

In the following, a different compound is considered.
Q: Please report the measured IC50 for C[C@@H](O)[C@H](NC(=O)[C@H](CCCNC(=N)N)NC(=O)CCCCC1CCSS1)C(=O)N[C@H](C(=O)N[C@@H](CCCNC(=N)N)C(=O)N[C@@H](CO)C(N)=O)[C@@H](C)O (mixture of isomers) [Peptide 23, Lip-Arg-Thr-Thr-Arg-Ser-NH2]
Result: 2360

---

- test-details: Viability of fibroblast cells, MTT assay
- Type: cell-based, Human
- measurement-parameters: human, primary dermal fibroblast cells; 100 µmol/L, 24 h, MTT; ± 2; read-out: Viability of fibroblast cells
Residues, ends and D or L forms follow the SMILES beside them.
endpoint-name: viability at 24 h, 100 µmol/L (%)
Please reply with the bare figure in % and do not write the unit itself.

CCCCCCCCCCCCCCCC(=O)N[C@@H](CCCNC(=N)N)C(=O)N[C@H](C(=O)N[C@H](C(=O)N[C@@H](CCCCN)C(=O)N[C@@H](CO)C(=O)O)[C@@H](C)O)[C@@H](C)O [Peptide 28, Pal-Arg-Thr-Thr-Lys-Ser-OH] (HELM PEPTIDE1{[CCCCCCCCCCCCCCCC(=O)[*:2]].R.T.T.K.S}$$$$V2.0) ... 106
CCCCCCCCCCCCCCCC(=O)N[C@@H](CCCCN)C(=O)N[C@H](C(=O)N[C@H](C(=O)N[C@@H](CCCNC(=N)N)C(=O)N[C@@H](CO)C(=O)O)[C@@H](C)O)[C@@H](C)O [Peptide 12, Pal-Lys-Thr-Thr-Arg-Ser-OH] (HELM PEPTIDE1{[CCCCCCCCCCCCCCCC(=O)[*:2]].K.T.T.R.S}$$$$V2.0) ... 99

Q: Please report the measured viability at 24 h, 100 µmol/L for C[C@@H](O)[C@H](NC(=O)[C@H](CCCCN)NC(=O)CCCCC1CCSS1)C(=O)N[C@H](C(=O)N[C@@H](CCCCN)C(=O)N[C@@H](CO)C(N)=O)[C@@H](C)O (mixture of isomers) [Peptide 7, Lip-Lys-Thr-Thr-Lys-Ser-NH2]
Result: 87
